System: HTT
protocol.text: HiBiT protein abundance assay, HTT
Assay type: cell-based, human
condition: Table 13A, modified K562 cells, 24 hours
endpoint.name: IC50

> print(dat)
                                   molecule    reported.value
1  CN(c1ccc(-c2cc(F)c(-c3cn[nH]c3)c3cn[nH]c23)nn1)[C@@H]1C[C@H]2CC[C@@H](C1)N2 [Compound 147]          < 100 nM
2  c1nc2c(-c3cn[nH]c3)ccc(-c3cnc(N4CCN[C@H](C5CC5)C4)nn3)c2s1 [Compound 553]  1000 to 10000 nM
3  FC1(F)CC2CC(Oc3ccc(-c4ccc(-c5cn[nH]c5)c5cn[nH]c45)nn3)CC1N2 (centres unmarked) [Compound 374]        > 10000 nM
4  c1cnn(-c2ccc(-c3cnc(N4CCNC(C5CC5)C4)nn3)c3cn[nH]c23)c1 (centres unmarked) [Compound 555]    100 to 1000 nM

// next entry
The value of IC50 measured for the molecule CNC1CCN(c2ncc(-c3ccc(-n4cccn4)c4[nH]ncc34)nn2)C1 (centres unmarked) [Compound 549] turned out to be 1000 to 10000 nM

* * *

Each entry below carries its reported pIC50.
System: HTT
protocol.text: Splicing RT-qPCR assay, HTT mRNA canonical junction (CJ) and alternative junction (AJ)
Type: cell-based, human
condition: Homo sapiens, RT-qPCR panel, canonical junction mRNA; compound concentration having 50% response in CJ decrease; read-out: HTT IC50 (decrease in CJ mRNA levels)
pIC50: −log10 of the molar value.

Some compounds with known pIC50 results, for comparison:
> print(dat)
                                   compound  endpoint.name  reported.value
1  COc1cc(-c2ccc(-c3ccc(O[C@@H]4C[C@H]5CC[C@@H](C4)N5)nn3)c3scnc23)cnn1          pIC50          > 7.00
2  CN(c1ccc(-c2cc(F)c(-c3cnn(C)c3)c3cn[nH]c23)nn1)C1CC(C)(C)NC(C)(C)C1          pIC50    6.00 to 7.00
3  CN(c1ccc(-c2ccc(-c3cnc(=O)[nH]c3)c3scnc23)nn1)C1CC(C)(C)NC(C)(C)C1          pIC50    6.00 to 7.00

The value of pIC50 measured for the compound CN(c1ccc(-c2ccc(-n3cccn3)c3nc[nH]c23)nn1)[C@@H]1C[C@H]2CC[C@@H](C1)N2 turned out to be 5.00 to 6.00

* * *

Test system: Target C
protocol.text: HiBiT protein abundance assay, Target C
Assay type: cell-based, human
condition: Homo sapiens, K562, 24 h, Table 13A, modified K562 cells
endpoint.name: IC50

Some molecules with known IC50 results, for comparison:
> print(dat)
                                   molecule  reported.value
1  C[C@@H]1CN(c2ncc(-c3ccc(-n4cccn4)c4[nH]ncc34)nn2)C[C@H](C)N1      1 to 10 µM
2  COc1cc(-c2ccc(-c3ccc(N(C)C4CC(C)(C)NC(C)(C)C4)nn3)c3scnc23)cnn1        < 0.1 µM
3  CN(c1ccc(-c2ccc(-n3cccn3)c3ncsc23)nn1)[C@@H]1C[C@H]2CC[C@@H](C1)N2     0.1 to 1 µM
4  C[C@@H]1CN(c2ncc(-c3ccc(-c4cn[nH]c4)c4ncsc34)nn2)C[C@H](C)N1      1 to 10 µM
5  [2H]C([2H])([2H])N(c1ccc(-c2ccc(-c3cn[nH]c3)c3ncsc23)nn1)[C@@H]1C[C@H]2CCC[C@@H](C1)N2        < 0.1 µM

The value of IC50 measured for the molecule c1nc2c(-c3cn[nH]c3)ccc(-c3ccc(O[C@@H]4C[C@H]5CC[C@@H](C4)N5)nn3)c2s1 turned out to be 0.1 to 1 µM

The value of IC50 measured for the molecule c1cnn(-c2ccc(-c3ccc(N4CCNC(C5CC5)C4)nn3)c3cn[nH]c23)c1 (centres unmarked) turned out to be 0.1 to 1 µM

The value of IC50 measured for the molecule C[C@H]1C[C@@H](N(C)c2ccc(-c3ccc(-n4cccn4)c4cc[nH]c34)nn2)CCN1 turned out to be 1 to 10 µM

The value of IC50 measured for the molecule CN(c1ncc(-c2ccc(-c3cn[nH]c3)c3ncsc23)nn1)[C@@H]1C[C@]2(C)CC[C@](C)(C1)N2 turned out to be 0.1 to 1 µM

The value of IC50 measured for the molecule c1nc2c(-c3cn[nH]c3)ccc(-c3ccc(N4CC5(CCCNC5)C4)nn3)c2s1 turned out to be > 10 µM

The value of IC50 measured for the molecule c1nc2c(-c3cn[nH]c3)ccc(-c3ccc(O[C@H]4C[C@H]5COC[C@@H](C4)N5)nn3)c2s1 turned out to be > 10 µM

The value of IC50 measured for the molecule CCn1ncc(-c2ccc(-c3ccc(N(C)[C@@H]4C[C@H]5CC[C@@H](C4)N5)nn3)c3[nH]ncc23)n1 turned out to be 0.1 to 1 µM

The value of IC50 measured for the molecule CC(C)(C)NC1CCN(c2ccc(-c3ccc(-n4cccn4)c4cn[nH]c34)nn2)C1 (centres unmarked) turned out to be 1 to 10 µM

The value of IC50 measured for the molecule COc1cc(-c2ccc(-c3ccc(N(C)C4CC(C)(C)NC(C)(C)C4)nn3)c3scnc23)ccn1 turned out to be 0.1 to 1 µM
